- Species on record: Homo sapiens
- protocol: Inhibition of human recombinant NAE assessed as inhibition of NEDD8-UbcH12 complex formation at 0.001 to 10 uM after 1.5 hrs by Western blot analysis
Calls of active or inactive are those of the source. No cut-off for these calls is given here.
assay_readout: inhibition

{"compound": "NS(=O)(=O)OC[C@H]1O[C@@H](n2cnc3c(NCC4CCCO4)ncnc32)[C@H](O)[C@@H]1O (stereo partly specified)", "assay_readout": "inhibition", "assay_result": "Active"}
{"compound": "NS(=O)(=O)OC[C@H]1O[C@@H](n2cnc3c(N[C@H]4CCc5ccccc54)ncnc32)[C@H](O)[C@@H]1O", "assay_readout": "inhibition", "assay_result": "Active"}
{"compound": "CCCCN(CCCC)c1ncnc2c1ncn2[C@@H]1O[C@H](COS(N)(=O)=O)[C@@H](O)[C@H]1O", "assay_readout": "inhibition", "assay_result": "Active"}
{"compound": "CN(Cc1ccco1)c1ncnc2c1ncn2[C@@H]1O[C@H](COS(N)(=O)=O)[C@@H](O)[C@H]1O", "assay_readout": "inhibition", "assay_result": "Active"}
{"compound": "CCC(C)Nc1ncnc2c1ncn2[C@@H]1O[C@H](COS(N)(=O)=O)[C@@H](O)[C@H]1O (stereo partly specified)", "assay_readout": "inhibition", "assay_result": "Active"}
{"compound": "CC(C)Nc1ncnc2c1ncn2[C@@H]1O[C@H](COS(N)(=O)=O)[C@@H](O)[C@H]1O", "assay_readout": "inhibition", "assay_result": "Active"}

----------
- target_or_system: SUMO-activating enzyme (Homo sapiens) (UniProt Q9UBE0+Q9UBT2)
- protocol: Inhibition of human recombinant SAE1/2 assessed as inhibition of SUMO1-UbcH9 complex formation at 0.001 to 10 uM after 1.5 hrs by Western blot analysis
- Format: protein-complex assay
Activity calls are given as the source filed them. No cut-off for these calls is given here.

{"compound": "CCC(C)Nc1ncnc2c1ncn2[C@@H]1O[C@H](COS(N)(=O)=O)[C@@H](O)[C@H]1O (stereo partly drawn)", "inhibition": "Active"}
{"compound": "NS(=O)(=O)OC[C@H]1O[C@@H](n2cnc3c(NCc4cccs4)ncnc32)[C@H](O)[C@@H]1O", "inhibition": "Active"}
{"compound": "CCCCCCNc1ncnc2c1ncn2[C@@H]1O[C@H](COS(N)(=O)=O)[C@@H](O)[C@H]1O", "inhibition": "Active"}
{"compound": "CC(C)(C)CCNc1ncnc2c1ncn2[C@@H]1O[C@H](COS(N)(=O)=O)[C@@H](O)[C@H]1O", "inhibition": "Active"}
{"compound": "NS(=O)(=O)OC[C@@H]1C[C@@H](n2ccc3c(N[C@H]4CCc5ccccc54)ncnc32)C[C@@H]1O", "inhibition": "Active"}
{"compound": "NS(=O)(=O)OC[C@H]1O[C@@H](n2cnc3c(N[C@H]4CCc5ccccc54)ncnc32)[C@H](O)[C@@H]1O", "inhibition": "Active"}
{"compound": "NS(=O)(=O)OC[C@H]1O[C@@H](n2cnc3c(NCCCn4ccnc4)ncnc32)[C@H](O)[C@@H]1O", "inhibition": "Active"}
{"compound": "CC(C)Nc1ncnc2c1ncn2[C@@H]1O[C@H](COS(N)(=O)=O)[C@@H](O)[C@H]1O", "inhibition": "Active"}

----------
- Species on record: Homo sapiens
- protocol: Inhibition of human recombinant NAE assessed as inhibition of NEDD8-UbcH12 complex formation at 10 nM after 1.5 hrs by Western blot analysis
assay_readout: inhibition

{"compound": "CCC(C)Nc1ncnc2c1ncn2[C@@H]1O[C@H](COS(N)(=O)=O)[C@@H](O)[C@H]1O (some centres not stated)", "assay_result": "< 25%"}
{"compound": "NS(=O)(=O)OC[C@H]1O[C@@H](n2cnc3c(NCc4ccoc4)ncnc32)[C@H](O)[C@@H]1O", "assay_result": "100%"}
{"compound": "NS(=O)(=O)OC[C@H]1O[C@@H](n2cnc3c(NCc4cccs4)ncnc32)[C@H](O)[C@@H]1O", "assay_result": "100%"}
{"compound": "CC(C)(C)CCNc1ncnc2c1ncn2[C@@H]1O[C@H](COS(N)(=O)=O)[C@@H](O)[C@H]1O", "assay_result": "< 29%"}
{"compound": "CCCNc1ncnc2c1ncn2[C@@H]1O[C@H](COS(N)(=O)=O)[C@@H](O)[C@H]1O", "assay_result": "< 63%"}
{"compound": "CNc1ncnc2c1ncn2[C@@H]1O[C@H](COS(N)(=O)=O)[C@@H](O)[C@H]1O", "assay_result": "< 76%"}
